SYSTEM_NAME: CA-IX (Homo sapiens)
Construct: HT-29 cells (CA-IX highly expressing cells, purchased from Sumitomo Dainippon Pharma Co., Ltd.); host or cells: HT-29 cells
EXPERIMENT_SUMMARY: Cell binding inhibition assay (acetazolamide as inhibitor, HT-29 cells)
CONDITION_CONTEXT: read-out: IC50 (nM, mean ± SD)

- MOLECULE: "NS(=O)(=O)c1nn2cc(-c3ccc(NC(=O)CN4CCN(CC(=O)O)CCN(CC(=O)O)CCN(CC(=O)O)CC4)cc3)nc2s1 [[^111In]DO3A-IS1, metal not drawn]"
  IC50 [nM]: 127

---

EXPERIMENT_SUMMARY: Distribution coefficient (1-octanol/PBS)
Format: physicochemical
CONDITION_CONTEXT: log10, 1-octanol/PBS pH 7.4, n=5
Entry flag: satisfied if Distribution coefficient (mean ± SD) reaches -2; not satisfied if it does not.

- COMPOUND: "NS(=O)(=O)c1nn2cc(-c3ccc(NC(=O)CN4CCN(CC(=O)O)CCN(CC(=O)N[C@@H](CCCCNC(=O)CCCc5ccc(I)cc5)C(=O)O)CCN(CC(=O)O)CC4)cc3)nc2s1.[111In+3] [[^111In]IS-DO2A-ALB1]"
  DISCRETE_LABEL: "satisfied"
- COMPOUND: "NS(=O)(=O)c1nn2cc(-c3ccc(NC(=O)CN4CCN(CC(=O)O)CCN(CC(=O)N[C@@H](CCCCNC(=O)CCCc5ccc(Br)cc5)C(=O)O)CCN(CC(=O)O)CC4)cc3)nc2s1.[111In+3] [[^111In]IS-DO2A-ALB3]"
  DISCRETE_LABEL: "satisfied"
- COMPOUND: "NS(=O)(=O)c1nn2cc(-c3ccc(NC(=O)CN4CCN(CC(=O)O)CCN(CC(=O)O)CCN(CC(=O)O)CC4)cc3)nc2s1 [[^111In]DO3A-IS1, metal not drawn]"
  DISCRETE_LABEL: "not satisfied"
- COMPOUND: "NS(=O)(=O)c1nn2cc(-c3ccc(NC(=O)CN4CCN(CC(=O)O)CCN(CC(=O)N[C@@H](CCCCNC(=O)CCCc5ccccc5)C(=O)O)CCN(CC(=O)O)CC4)cc3)nc2s1.[111In+3] [[^111In]IS-DO2A-ALB4]"
  DISCRETE_LABEL: "not satisfied"
- COMPOUND: "Cc1ccc(CCCC(=O)NCCCC[C@H](NC(=O)CN2CCN(CC(=O)O)CCN(CC(=O)Nc3ccc(-c4cn5nc(S(N)(=O)=O)sc5n4)cc3)CCN(CC(=O)O)CC2)C(=O)O)cc1.[111In+3] [[^111In]IS-DO2A-ALB2]"
  DISCRETE_LABEL: "not satisfied"

All values here come from patent US20230112418A1.
